Settings: Crystal; visual observation
reported property: Triple point temperature (K)
Answer format: numeric, K implied, no suffix.

Prompt: Suppose we examine the compound "O=C1CCCC1" ; what Triple point temperature value has been reported?
Response: 220.77

Prompt: Field request: Triple point temperature | item: "CCC(=O)CC"
Response: 234.36

Prompt: Consider the compound "CCCC(=O)CCC" and give its measured Triple point temperature.
Response: 241.77

Prompt: Which measured Triple point temperature value corresponds to "CN1CCCC1=O" ?
Response: 249.68
